Reference source: patent US20250235545A1

Each entry below lists one item and its recorded Mouse weight (%) value.
tested on: colo320 colorectal cancer tumor model; conditions: Table 13 (Example 42); dose 45 mg/kg, once a week for four weeks; BALB/c mice
Where a SMILES comes first, the peptide text is derived from it. The star is where a group is joined. Belotecan = CC[C@@]1(O)C(=O)OCc2c1cc1n(c2=O)Cc2c-1nc1ccccc1c2CCN(C(C)C)*; X7 = CC[C@@]1(O)C(=O)OCc2c1cc1n(c2=O)Cc2c-1nc1ccccc1c2CCN(C)*; Propanoyl(3-maleimido) = O=C1C=CC(=O)N1CCC(=O)*; PEG6 = NCCOCCOCCOCCOCCOCCOCCC(=O)O
metric: Mouse weight (%)

1) CC[C@@]1(O)C(=O)OCc2c1cc1n(c2=O)Cc2c-1nc1ccccc1c2CCN(C(=O)[C@H](CC(C)C)NC(=O)[C@H](Cc1ccccc1)NC(=O)CNC(=O)CNC(=O)CCOCCOCCOCCOCCOCCOCCNC(=O)CCN1C(=O)C=CC1=O)C(C)C [MI-6PEG-GGFL-Belotecan] ({Propanoyl(3-maleimido)-PEG6}-GGFL-Belotecan)    +5%
2) CC[C@@]1(O)C(=O)OCc2c1cc1n(c2=O)Cc2c-1nc1ccccc1c2CCN(C)C(=O)CNC(=O)[C@H](Cc1ccccc1)NC(=O)CNC(=O)CNC(=O)CCOCCOCCOCCOCCOCCOCCNC(=O)CCN1C(=O)C=CC1=O [MI-6PEG-GGFG-D1] ({Propanoyl(3-maleimido)-PEG6}-GGFG-X7)    +19%
3) CC[C@@]1(O)C(=O)OCc2c1cc1n(c2=O)Cc2c-1nc1ccccc1c2CCN(C(=O)CNC(=O)[C@H](Cc1ccccc1)NC(=O)CNC(=O)CNC(=O)CCOCCOCCOCCOCCOCCOCCNC(=O)CCN1C(=O)C=CC1=O)C(C)C [MI-6PEG-GGFG-Belotecan] ({Propanoyl(3-maleimido)-PEG6}-GGFG-Belotecan)    +34%
4) CC[C@@]1(O)C(=O)OCc2c1cc1n(c2=O)Cc2c-1nc1ccccc1c2CCN(C)C(=O)[C@H](CC(C)C)NC(=O)[C@H](Cc1ccccc1)NC(=O)CNC(=O)CNC(=O)CCOCCOCCOCCOCCOCCOCCNC(=O)CCN1C(=O)C=CC1=O [MI-6PEG-GGFL-D1] ({Propanoyl(3-maleimido)-PEG6}-GGFL-X7)    +19%

###

assay: Tumor homogenate activation efficiency, sarcoma tissue (Examples 28, 37); assay type: in vitro ADME; conditions: pH 5.0, 37° C., 2 h; Table 10
Where a SMILES comes first, the peptide text is derived from it. The star is where a group is joined. NEt(2-(20S-CPT-7-yl)ethyl) = CCN(CCc1c2c(nc3ccccc13)-c1cc3c(c(=O)n1C2)COC(=O)[C@]3(O)CC)*; X1 = CC[C@@]1(O)C(=O)OCc2c1cc1n(c2=O)Cc2c-1nc1ccccc1c2CCN(C1CCC1)*; X4 = CCCN(CCc1c2c(nc3ccccc13)-c1cc3c(c(=O)n1C2)COC(=O)[C@]3(O)CC)*; Propanoyl(3-maleimido) = O=C1C=CC(=O)N1CCC(=O)*; PEG6 = NCCOCCOCCOCCOCCOCCOCCC(=O)O
metric: Percentage of release efficiency (%) Sarcoma tissue (SJSA1)

1. CC[C@@]1(O)C(=O)OCc2c1cc1n(c2=O)Cc2c-1nc1ccccc1c2CCN(C(=O)[C@H](CC(C)C)NC(=O)[C@H](CC(N)=O)NC(=O)[C@H](C)NC(=O)[C@H](C)NC(=O)CCOCCOCCOCCOCCOCCOCCNC(=O)CCN1C(=O)C=CC1=O)C1CCC1 [MI-6PEG-AANL-D7] ({Propanoyl(3-maleimido)-PEG6}-AANL-X1)    71.7
2. CCN(CCc1c2c(nc3ccccc13)-c1cc3c(c(=O)n1C2)COC(=O)[C@]3(O)CC)C(=O)[C@H](CC(C)C)NC(=O)[C@H](CC(N)=O)NC(=O)[C@H](C)NC(=O)[C@H](C)NC(=O)CCOCCOCCOCCOCCOCCOCCNC(=O)CCN1C(=O)C=CC1=O [MI-6PEG-AANL-D2] ({Propanoyl(3-maleimido)-PEG6}-AANL-{NEt(2-(20S-CPT-7-yl)ethyl)})    67.1
3. CCCN(CCc1c2c(nc3ccccc13)-c1cc3c(c(=O)n1C2)COC(=O)[C@]3(O)CC)C(=O)[C@H](CC(C)C)NC(=O)[C@H](CC(N)=O)NC(=O)[C@H](C)NC(=O)[C@H](C)NC(=O)CCOCCOCCOCCOCCOCCOCCNC(=O)CCN1C(=O)C=CC1=O [MI-6PEG-AANL-D3] ({Propanoyl(3-maleimido)-PEG6}-AANL-X4)    90

###

Each entry below lists one item and its recorded Mouse weight (%) value.
tested on: sarcoma SJSA-1 tumor model; conditions: 45 mg/kg once a week for three weeks; Table 7
Where a SMILES comes first, the peptide text is derived from it. The star is where a group is joined. NEt(2-(20S-CPT-7-yl)ethyl) = CCN(CCc1c2c(nc3ccccc13)-c1cc3c(c(=O)n1C2)COC(=O)[C@]3(O)CC)*; Belotecan = CC[C@@]1(O)C(=O)OCc2c1cc1n(c2=O)Cc2c-1nc1ccccc1c2CCN(C(C)C)*; Propanoyl(3-maleimido) = O=C1C=CC(=O)N1CCC(=O)*; PEG6 = NCCOCCOCCOCCOCCOCCOCCC(=O)O
metric: Mouse weight (%)

1. CC[C@@]1(O)C(=O)OCc2c1cc1n(c2=O)Cc2c-1nc1ccccc1c2CCN(C(=O)[C@H](CC(C)C)NC(=O)[C@H](Cc1ccccc1)NC(=O)CNC(=O)CNC(=O)CCOCCOCCOCCOCCOCCOCCNC(=O)CCN1C(=O)C=CC1=O)C(C)C [MI-6PEG-GGFL-Belotecan] ({Propanoyl(3-maleimido)-PEG6}-GGFL-Belotecan)    +22%
2. CCN(CCc1c2c(nc3ccccc13)-c1cc3c(c(=O)n1C2)COC(=O)[C@]3(O)CC)C(=O)[C@H](CC(C)C)NC(=O)[C@H](CC(N)=O)NC(=O)[C@H](C)NC(=O)[C@H](C)NC(=O)CCOCCOCCOCCOCCOCCOCCNC(=O)CCN1C(=O)C=CC1=O [MI-6PEG-AANL-D2] ({Propanoyl(3-maleimido)-PEG6}-AANL-{NEt(2-(20S-CPT-7-yl)ethyl)})    +24%

###

system: A2780 ovarian cancer tumor model; experiment: Efficacy in animal model of A2780 ovarian cancer, 30 mg/kg once a week for two weeks (Example 41); type: in vivo, BALB/c mice; settings: Day 14
Where a SMILES comes first, the peptide text is derived from it. The star is where a group is joined. X2 = CCCCN(CCc1c2c(nc3ccccc13)-c1cc3c(c(=O)n1C2)COC(=O)[C@]3(O)CC)*; X4 = CCCN(CCc1c2c(nc3ccccc13)-c1cc3c(c(=O)n1C2)COC(=O)[C@]3(O)CC)*; X3 = CC[C@@]1(O)C(=O)OCc2c1cc1n(c2=O)Cc2c-1nc1ccccc1c2CCN(C1CC1)*; Propanoyl(3-maleimido) = O=C1C=CC(=O)N1CCC(=O)*; PEG6 = NCCOCCOCCOCCOCCOCCOCCC(=O)O
Each entry below lists one item and its recorded Mouse weight (%) on Day 14 value.
metric: Mouse weight (%) on Day 14

1. CC[C@@]1(O)C(=O)OCc2c1cc1n(c2=O)Cc2c-1nc1ccccc1c2CCN(C(=O)[C@H](CC(C)C)NC(=O)[C@H](CC(N)=O)NC(=O)[C@H](C)NC(=O)[C@H](C)NC(=O)CCOCCOCCOCCOCCOCCOCCNC(=O)CCN1C(=O)C=CC1=O)C1CC1 [MI-6PEG-AANL-D6] ({Propanoyl(3-maleimido)-PEG6}-AANL-X3)    +5.2%
2. CCCN(CCc1c2c(nc3ccccc13)-c1cc3c(c(=O)n1C2)COC(=O)[C@]3(O)CC)C(=O)CNC(=O)[C@H](CC(N)=O)NC(=O)[C@H](C)NC(=O)[C@H](C)NC(=O)CCOCCOCCOCCOCCOCCOCCNC(=O)CCN1C(=O)C=CC1=O [MI-6PEG-AANG-D3] ({Propanoyl(3-maleimido)-PEG6}-AANG-X4)    +11.4%
3. CCCCN(CCc1c2c(nc3ccccc13)-c1cc3c(c(=O)n1C2)COC(=O)[C@]3(O)CC)C(=O)[C@H](CC(C)C)NC(=O)[C@H](CC(N)=O)NC(=O)[C@H](C)NC(=O)[C@H](C)NC(=O)CCOCCOCCOCCOCCOCCOCCNC(=O)CCN1C(=O)C=CC1=O [MI-6PEG-AANL-D4] ({Propanoyl(3-maleimido)-PEG6}-AANL-X2)    +14.5%

###

Each entry below lists one item and its recorded Percentage of release efficiency (%) Heart tissue value.
experiment: Homogenate activation efficiency, heart tissue (Examples 28, 37); type: in vitro ADME; settings: pH 5.0, 37° C., 2 h; Table 10
Where a SMILES comes first, the peptide text is derived from it. The star is where a group is joined. Belotecan = CC[C@@]1(O)C(=O)OCc2c1cc1n(c2=O)Cc2c-1nc1ccccc1c2CCN(C(C)C)*; X1 = CC[C@@]1(O)C(=O)OCc2c1cc1n(c2=O)Cc2c-1nc1ccccc1c2CCN(C1CCC1)*; X5 = CC[C@@]1(O)C(=O)OCc2c1cc1n(c2=O)Cc2c-1nc1ccccc1c2CCN(CC(C)C)*; X7 = CC[C@@]1(O)C(=O)OCc2c1cc1n(c2=O)Cc2c-1nc1ccccc1c2CCN(C)*; Propanoyl(3-maleimido) = O=C1C=CC(=O)N1CCC(=O)*; PEG6 = NCCOCCOCCOCCOCCOCCOCCC(=O)O
metric: Percentage of release efficiency (%) Heart tissue

1. CC[C@@]1(O)C(=O)OCc2c1cc1n(c2=O)Cc2c-1nc1ccccc1c2CCN(CC(C)C)C(=O)[C@H](CC(C)C)NC(=O)[C@H](CC(N)=O)NC(=O)[C@H](C)NC(=O)[C@H](C)NC(=O)CCOCCOCCOCCOCCOCCOCCNC(=O)CCN1C(=O)C=CC1=O [MI-6PEG-AANL-D5] ({Propanoyl(3-maleimido)-PEG6}-AANL-X5)    5.5
2. CC[C@@]1(O)C(=O)OCc2c1cc1n(c2=O)Cc2c-1nc1ccccc1c2CCN(C(=O)[C@H](CC(C)C)NC(=O)[C@H](CC(N)=O)NC(=O)[C@H](C)NC(=O)[C@H](C)NC(=O)CCOCCOCCOCCOCCOCCOCCNC(=O)CCN1C(=O)C=CC1=O)C1CCC1 [MI-6PEG-AANL-D7] ({Propanoyl(3-maleimido)-PEG6}-AANL-X1)    2.2
3. CC[C@@]1(O)C(=O)OCc2c1cc1n(c2=O)Cc2c-1nc1ccccc1c2CCN(C)C(=O)[C@H](CC(C)C)NC(=O)[C@H](CC(N)=O)NC(=O)[C@H](C)NC(=O)[C@H](C)NC(=O)CCOCCOCCOCCOCCOCCOCCNC(=O)CCN1C(=O)C=CC1=O [MI-6PEG-AANL-D1] ({Propanoyl(3-maleimido)-PEG6}-AANL-X7)    3
4. CC[C@@]1(O)C(=O)OCc2c1cc1n(c2=O)Cc2c-1nc1ccccc1c2CCN(C(=O)[C@H](CC(C)C)NC(=O)[C@H](CC(N)=O)NC(=O)[C@H](C)NC(=O)[C@H](C)NC(=O)CCOCCOCCOCCOCCOCCOCCNC(=O)CCN1C(=O)C=CC1=O)C(C)C [MI-6PEG-AANL-Belotecan] ({Propanoyl(3-maleimido)-PEG6}-AANL-Belotecan)    2.5
5. CC[C@@]1(O)C(=O)OCc2c1cc1n(c2=O)Cc2c-1nc1ccccc1c2CCN(C)C(=O)[C@H](CC(C)C)NC(=O)[C@H](Cc1ccccc1)NC(=O)CNC(=O)CNC(=O)CCOCCOCCOCCOCCOCCOCCNC(=O)CCN1C(=O)C=CC1=O [MI-6PEG-GGFL-D1] ({Propanoyl(3-maleimido)-PEG6}-GGFL-X7)    1.4
